experiment: Half life in ICR mouse at 10 mg/kg, po measured up to 24 hrs by LC-MS/MS analysis; assay type: ADME, organism-based; conditions: in vivo
experimental_endpoint: half-life
Hi, when you answer, please include the unit after the number. Thanks!

Noted for N#Cc1ncc(Nc2ncc3c(ccc(=O)n3CC(F)F)n2)cc1N[C@@H]1CCNC1 : its half-life reads 1.51 h

* * *

experiment: Oral bioavailability in ICR mouse at 10 mg/kg measured up to 24 hrs by LC-MS/MS analysis; format: ADME, organism-based; conditions: in vivo
experimental_endpoint: bioavailability
Hi, when you answer, please include the unit after the number. Thanks!

Noted for N#Cc1ncc(Nc2ncc3c(ccc(=O)n3CC(F)F)n2)cc1N[C@@H]1CCNC1 : its bioavailability reads 2.77%

All values here come from ChEMBL document CHEMBL5500341.
